# IC50 per entry for HDAC6 (Homo sapiens, UniProt Q9UBN7)
Kindly provide the numeric value in µM only, without the unit symbol.

Reported IC50, compound `FC(F)(F)c1nc(-c2cnc(NC3(c4ccccc4)CC3)nc2)no1` : ____
0.15

What about `FC(F)c1nc(-c2cnc(NC3(c4ccccc4)CC3)nc2)no1` ?
2.9

###

Target protein (sequence): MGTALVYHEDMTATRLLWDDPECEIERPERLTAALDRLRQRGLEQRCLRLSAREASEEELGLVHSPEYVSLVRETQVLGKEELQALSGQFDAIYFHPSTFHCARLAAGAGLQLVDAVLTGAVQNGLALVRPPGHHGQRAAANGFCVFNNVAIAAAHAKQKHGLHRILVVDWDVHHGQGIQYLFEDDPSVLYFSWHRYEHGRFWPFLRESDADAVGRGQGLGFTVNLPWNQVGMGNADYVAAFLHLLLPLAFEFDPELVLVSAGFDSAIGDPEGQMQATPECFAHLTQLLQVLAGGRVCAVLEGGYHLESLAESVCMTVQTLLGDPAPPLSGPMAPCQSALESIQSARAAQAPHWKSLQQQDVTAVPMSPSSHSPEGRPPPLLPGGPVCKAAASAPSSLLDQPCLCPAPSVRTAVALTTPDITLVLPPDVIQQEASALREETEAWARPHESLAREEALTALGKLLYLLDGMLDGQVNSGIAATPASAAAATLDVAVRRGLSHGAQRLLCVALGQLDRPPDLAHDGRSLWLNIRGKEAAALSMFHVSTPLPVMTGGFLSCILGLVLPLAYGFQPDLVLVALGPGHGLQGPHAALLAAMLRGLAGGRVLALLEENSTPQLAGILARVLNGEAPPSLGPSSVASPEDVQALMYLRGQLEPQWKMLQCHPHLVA
attribute_measured: pIC50
Value format note: pIC50 is -log10 of concentration (mol/L); just state the number.

Reported pIC50, compound `FC(F)(F)c1nc(-c2cnc(NC3(c4ccccc4)CC3)nc2)no1` : ____
5.19
